# target or test system: HIV-1 pseudovirus 6952.v1.c20 (HIV-1)
# test protocol: cell-based or functional assay
Each entry below carries its reported IC80 (neutralization in TZM.bl cells).
Quick reminder: number only, in mg/L, skip the unit.

- MS-84 (antibody, V domains shown) VH: QVQLVQSGPEVRKPGTSVKVSCKAPGNTLKTYDLHWVRSVPGQGLQWMGWISHEGDKKVIVERFKAKVTIDWDRSTNTAYLQLSGLRSGDTAVYYCAKGSKHRLRDYALYDDDGALNWAVDVDYLSNLEFWGQGTAVTVSS VL: DFVLTQSPLSLPVTPGEPASISCKSSHSLIHGDRNNYLAWYVQKPGQSPQLLIYLASSRASGVPDRFSGSGSDKDFTLKISRVEAEDVGVYYCMQGRESPWTFGQGTKVDIKR: 18.2
- MS-72 (antibody, V domains shown) VH: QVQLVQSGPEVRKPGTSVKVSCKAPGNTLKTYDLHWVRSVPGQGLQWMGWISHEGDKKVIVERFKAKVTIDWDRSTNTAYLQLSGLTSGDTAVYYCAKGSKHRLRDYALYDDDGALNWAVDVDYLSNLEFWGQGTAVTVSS VL: DFVLTQSPHSLSVTPGESASISCKSSHSLIHGDRNNYLAWYVQKPGRSPQLLIYLASSRASGVPDRFSGSGSDTDFTLKISRVETEDVGTYYCMQGRESPWTFGQGTKVDIKR: 12.4

# input for lookup
## Task Fill in IC80 (neutralization in TZM.bl cells) for record MS-77 (antibody, V domains shown) VH: QVQLVQSGPEVRKPGTSVKVSCKAPGNTFKTYDLHWVRSVPGQGLQWMGWISHEGDKKVIVERFKAKVTIDWDRSTNTAYLQLSGLTSGDTAVYYCAKGSKHRLRDYALYDDDGALNWAVDVDYLSNLEFWGQGTAVTVSS VL: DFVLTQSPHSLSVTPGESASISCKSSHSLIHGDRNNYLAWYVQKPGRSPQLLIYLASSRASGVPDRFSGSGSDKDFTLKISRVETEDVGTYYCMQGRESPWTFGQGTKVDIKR
## Result 6.74

The measurements presented in this section are drawn from patent US20220025021A1.
